Parameter EC50: see the listing below.
target desc: human Endothelial Differentiation Gene 1 (EDG1), S1P1 receptor (Homo sapiens)
Construct: TEV protease site; Gal4-VP16 transcription factor; expressed in transfected cells; host or cells: EDG1-bla/U2OS (Tango GPCR-bla U2OS parental cell line)
Sequence (P21453 whole entry, the tested form may be a part): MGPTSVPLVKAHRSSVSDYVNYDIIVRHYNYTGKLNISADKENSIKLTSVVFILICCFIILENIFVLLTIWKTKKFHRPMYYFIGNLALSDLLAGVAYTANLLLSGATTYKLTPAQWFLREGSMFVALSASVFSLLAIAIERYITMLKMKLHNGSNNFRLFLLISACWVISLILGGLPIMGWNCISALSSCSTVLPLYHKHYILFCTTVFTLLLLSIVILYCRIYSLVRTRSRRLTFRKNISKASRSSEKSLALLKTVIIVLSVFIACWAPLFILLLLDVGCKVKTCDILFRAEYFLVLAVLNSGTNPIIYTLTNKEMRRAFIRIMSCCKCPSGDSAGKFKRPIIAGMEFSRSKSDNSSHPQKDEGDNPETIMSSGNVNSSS
method: S1P1 Assay (Tango EDG1-bla/U2OS beta-lactamase reporter, agonist dose response)
Type: cell-based
condition notes: EDG1-bla/U2OS cells, blue/green emission ratio, 10 point dose response, free base or salt form; read-out: pEC50 (S1P1 assay) (converted)
Method: Recombinant EDG1-bla/U2OS cells (contain the human Endothelial Differentiation Gene 1 (EDG1) linked to a TEV protease site and a Gal4-VP16 transcription factor stably integrated into the Tango GPCR-bla U2OS parental cell line) were harvested from growth medium and passaged into assay medium (Invitrogen Freestyle Expression Medium). The cells were starved for 24 hours at 37° C., 5% CO2, harvested and resuspended in assay medium at a density of ˜200,000 cells/ml. […]
Where a name gives a salt, the structure may show the parent alone.
property name: EC50

> print(dat)
                                    molecule    result
 1  CCc1c(CN2CCC(C(=O)O)CC2)cccc1-c1nsc(-c2ccc(OC(C)C)c(C(F)(F)F)c2)n1 [Example 18, trifluoroacetate]  < 100 nM
 2  CCc1c(CCN2CCC(C(=O)O)CC2)cccc1-c1nsc(-c2ccc(CC(C)C)c(C#N)c2)n1 [Example 29, trifluoroacetate]    < 1 nM
 3  CCc1c(CCN2C[C@H](O)C[C@H]2C(=O)O)cccc1-c1nsc(-c2ccc(OC(C)C)c(Cl)c2)n1 [Example 69]    < 1 nM
 4  CCc1c(CCN2CCC(C(=O)O)CC2)cccc1-c1nsc(-c2ccc(OC(C)C)c(C(F)(F)F)c2)n1 [Example 21]    < 1 nM
 5  CCc1c(CN2CC(C(=O)O)C2)cccc1-c1nsc(-c2ccc(CC(C)C)c(C#N)c2)n1 [Example 27, trifluoroacetate]   ≤ 10 nM
 6  CCc1c(CCN2CCC[C@H]2C(=O)O)cccc1-c1nnc(-c2ccc(OC(C)C)c(Cl)c2)s1 [Example 52]  < 100 nM
 7  COc1c(CCN2CC(C(=O)O)C2)cc(F)cc1-c1nnc(-c2ccc(OC(C)C)c(C(F)(F)F)c2)s1 [Example 14]   ≤ 10 nM
 8  CCc1c(CN2CCCC(C(=O)O)C2)cccc1-c1nnc(-c2ccc(CC(C)C)c(C#N)c2)s1 (centres unmarked) [Example 50]   ≤ 10 nM
 9  CCc1c(CN2CCC(C(=O)O)CC2)cccc1-c1nnc(-c2ccc(CC(C)C)c(C#N)c2)s1 [Example 8, trifluoroacetate]    < 1 nM
10  CCc1c(CCN2CCC(C(=O)O)CC2)cccc1-c1cnc(-c2ccc(OC(C)C)c(C#N)c2)s1 [Example 37, trifluoroacetate]    < 1 nM
11  CCc1c(-c2nsc(-c3ccc(OC(C)C)c(Cl)c3)n2)cccc1C1CCN(CCC(=O)O)CC1 [Example 100]   ≤ 10 nM
12  CCc1c(CN2CCC(C(=O)O)CC2)cccc1-c1cnc(-c2ccc(CC(C)C)c(C#N)c2)s1 [Example 42, trifluoroacetate]   ≤ 10 nM
13  CCc1c(CN2CC[C@H](C(=O)O)C2)cccc1-c1cnc(-c2ccc(OC(C)C)c(C#N)c2)s1 [Example 84]   ≤ 10 nM
14  CCc1c(CN2CC(C(=O)O)C2)cccc1-c1nnc(-c2ccc(OC(C)C)c(C(F)(F)F)c2)s1 [Example 2]    < 1 nM
